Assay: Apparent partition coefficient, log P in octanol and 0.1 M phosphate buffer at pH 7.4
Assay type: physicochemical
Conditions: octanol/0.1 M phosphate buffer
METRIC NAME: logD

Cl.O=[N+]([O-])c1cc(Cl)c(N=C2NCCN2)c(Cl)c1 = 1.92
Cl.Clc1cc(Br)cc(Cl)c1N=C1NCCN1 = 1.97
Cl.Clc1ccc(N=C2NCCN2)c(Cl)c1 = 0.29
Cc1ccccc1N=C1NCCN1.Cl = -1.82
Cl.Clc1ccc(Cl)c(N=C2NCCN2)c1 = 0.65
Cc1ccc(N=C2NCCN2)c(C)c1.Cl = -1.66
Cc1ccc(N=C2NCCN2)c(Cl)c1.Cl = -0.48
Cc1cc(C)c(N=C2NCCN2)c(Cl)c1.Cl = -0.36
Cc1cc(Cl)cc(Cl)c1N=C1NCCN1.Cl = 0.47
Cc1cc(Cl)ccc1N=C1NCCN1.Cl = -1.06
Cl.Clc1ccccc1N=C1NCCN1 = -0.67

---

Tested on: Rattus norvegicus
Assay: Hypotensive activity in iv dosed anesthetized normotensive Wistar rat assessed as maximal decrease in mean arterial pressure measured per gram of brain tissue
Assay type: functional, Artery
Each record is given condition met if its reported log(1/ED30) is strictly below 0.9. Records at or above 0.9 are given condition not met.

Cc1ccc(N=C2NCCN2)c(C)c1.Cl = condition met
Cl.Clc1ccc(N=C2NCCN2)c(Cl)c1 = condition met
Cc1cc(Cl)c(N=C2NCCN2)c(Cl)c1.Cl = condition met
Cc1cc(C)c(N=C2NCCN2)c(C)c1.Cl = condition not met
Cc1cccc(Cl)c1N=C1NCCN1.Cl = condition not met
Cc1cc(C)c(N=C2NCCN2)c(Cl)c1.Cl = condition met
Cl.Fc1cccc(F)c1N=C1NCCN1 = condition met
Brc1cc(Br)c(N=C2NCCN2)c(Br)c1.Cl = condition met
Cc1ccc(N=C2NCCN2)c(Cl)c1.Cl = condition not met
Cl.c1ccc(NC2=NCCN2)cc1 = condition met
Cl.Clc1cccc(Cl)c1NC1=NCCN1 [CLONIDINE HYDROCHLORIDE] = condition not met
Cl.Clc1ccccc1N=C1NCCN1 = condition met
Cc1cc(Cl)cc(C)c1N=C1NCCN1.Cl = condition met
COc1cc(Cl)c(N=C2NCCN2)c(Cl)c1.Cl = condition met
Cc1cc(Cl)cc(Cl)c1N=C1NCCN1.Cl = condition met
Cl.Clc1cccc(N=C2NCCN2)c1Cl = condition not met
Cl.Fc1cccc(Cl)c1N=C1NCCN1 = condition not met
Cc1cc(Br)cc(C)c1N=C1NCCN1.Cl = condition met
Cl.Clc1cccc(Br)c1N=C1NCCN1 = condition not met
Brc1cccc(Br)c1N=C1NCCN1.Cl = condition not met
Cl.O=[N+]([O-])c1cc(Cl)c(N=C2NCCN2)c(Cl)c1 = condition met
Cl.Clc1ccc(Cl)c(N=C2NCCN2)c1 = condition met
Cc1cccc(C)c1N=C1NCCN1.Cl = condition not met
Cc1cc(Cl)ccc1N=C1NCCN1.Cl = condition met

---

Below: a set of entries, each annotated with reported logD.
Experiment: Apparent partition coefficient, log P in octanol and 0.1 M phosphate buffer at pH 7.4
Format: physicochemical
Conditions: octanol/0.1 M phosphate buffer
METRIC NAME: logD

Brc1cccc(Br)c1N=C1NCCN1.Cl = 1.21
Cc1cccc(C)c1N=C1NCCN1.Cl = -1.54
Cl.Clc1cccc(Br)c1N=C1NCCN1 = 0.87
Cc1cc(C)c(N=C2NCCN2)c(C)c1.Cl = -1.28
Cc1cc(Cl)cc(C)c1N=C1NCCN1.Cl = -0.62
Cl.Fc1cccc(Cl)c1N=C1NCCN1 = 0.52
